src = ChEMBL document CHEMBL2396646

# protocolDescription: Plasma concentration in Sprague-Dawley rat at 10 mg/kg, po after 30 mins
# Type: ADME, organism-based
# Parameters: dose 10 mg/kg, route oral
testReadout: concentration at 0.5 h (ng/mL)
Give just the number in ng/mL; leave the unit off.

Prompt: Look up concentration at 0.5 h for this compound: "C[C@@H]1CN(c2cccnc2C#N)CCN1C(=O)C12CC3CC(CC(C3)C1)C2"
Response: 509

---

# systemTested: UniProt:Q13255
# protocolDescription: Negative allosteric modulation of human mGluR1 expressed in HEK293A cells assessed as inhibition of glutamate-induced calcium mobilization at 30 uM relative to glutamate
# Type: functional, cell-based
# experimentalSetup: HEK293-A
# Sequence (Q13255 19-1194 limits assumed): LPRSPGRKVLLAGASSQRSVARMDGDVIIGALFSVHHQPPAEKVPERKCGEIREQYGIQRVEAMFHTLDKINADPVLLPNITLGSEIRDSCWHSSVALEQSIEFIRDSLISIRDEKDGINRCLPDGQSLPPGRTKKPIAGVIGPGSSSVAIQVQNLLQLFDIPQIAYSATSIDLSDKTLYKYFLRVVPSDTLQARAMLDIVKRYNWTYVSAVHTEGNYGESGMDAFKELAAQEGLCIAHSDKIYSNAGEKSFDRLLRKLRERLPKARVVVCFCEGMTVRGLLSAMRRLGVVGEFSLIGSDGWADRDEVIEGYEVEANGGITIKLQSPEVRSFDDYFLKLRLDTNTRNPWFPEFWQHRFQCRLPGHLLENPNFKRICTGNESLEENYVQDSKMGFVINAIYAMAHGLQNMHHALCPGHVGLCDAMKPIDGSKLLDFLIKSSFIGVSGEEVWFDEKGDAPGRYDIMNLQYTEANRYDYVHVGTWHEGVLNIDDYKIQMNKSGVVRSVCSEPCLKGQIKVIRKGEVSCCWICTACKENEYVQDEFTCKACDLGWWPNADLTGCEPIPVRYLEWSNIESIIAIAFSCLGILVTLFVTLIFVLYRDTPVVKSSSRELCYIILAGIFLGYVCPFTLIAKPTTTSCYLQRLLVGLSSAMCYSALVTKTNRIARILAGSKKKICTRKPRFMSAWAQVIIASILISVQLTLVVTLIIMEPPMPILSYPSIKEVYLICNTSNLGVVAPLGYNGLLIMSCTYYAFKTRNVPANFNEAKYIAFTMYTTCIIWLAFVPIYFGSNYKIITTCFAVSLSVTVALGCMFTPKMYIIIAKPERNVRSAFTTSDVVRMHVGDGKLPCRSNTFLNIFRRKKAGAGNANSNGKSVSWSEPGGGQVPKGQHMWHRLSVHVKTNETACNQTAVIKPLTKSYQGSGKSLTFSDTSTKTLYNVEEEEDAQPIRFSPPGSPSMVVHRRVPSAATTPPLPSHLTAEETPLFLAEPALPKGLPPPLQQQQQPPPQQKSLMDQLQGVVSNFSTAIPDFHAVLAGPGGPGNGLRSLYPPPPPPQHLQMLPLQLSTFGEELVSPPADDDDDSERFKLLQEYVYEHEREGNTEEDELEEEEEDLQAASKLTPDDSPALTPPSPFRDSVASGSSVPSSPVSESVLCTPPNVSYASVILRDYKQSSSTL
testReadout: inhibition (%)
Give just the number in %; leave the unit off.

Prompt: Look up inhibition for this molecule: "C[C@@H]1CN(C(=O)C23CC4CC(CC(C4)C2)C3)CCN1c1ccccn1"
Response: 2

Prompt: Look up inhibition for this molecule: "C[C@@H]1CN(c2ccccn2)CCN1C(=O)C1CCCCCCC1"
Response: 0

Prompt: Look up inhibition for this molecule: "C[C@@H]1CN(c2cccc(F)n2)CCN1C(=O)C12CC3CC(CC(C3)C1)C2"
Response: 2

Prompt: Look up inhibition for this molecule: "C[C@@H]1CN(C(=O)C23CC4CC(CC(C4)C2)C3)CCN1c1cnccn1"
Response: 34

Prompt: Look up inhibition for this molecule: "C[C@@H]1CN(c2ncccn2)CCN1C(=O)C12CC3CC(CC(C3)C1)C2"
Response: 0.9

Prompt: Look up inhibition for this molecule: "C[C@H]1CN(C(=O)C23CC4CC(CC(C4)C2)C3)CCN1c1ccccn1"
Response: 1.8

Prompt: Look up inhibition for this molecule: "C[C@@H]1CN(c2ccccn2)CCN1C(=O)[C@H]1CC[C@H](C)CC1"
Response: 32.1

Prompt: Look up inhibition for this molecule: "C[C@@H]1CN(C(=O)C23CC4CC(CC(C4)C2)C3)CCN1c1ccncn1"
Response: 34.7

Prompt: Look up inhibition for this molecule: "C[C@@H]1CN(c2cccnc2)CCN1C(=O)C12CC3CC(CC(C3)C1)C2"
Response: 1.8

Prompt: Look up inhibition for this molecule: "C[C@@H]1CN(c2cnccn2)CCN1C(=O)C12CC3CC(CC(C3)C1)C2"
Response: -0.3

Prompt: Look up inhibition for this molecule: "C[C@@H]1CN(c2ccccc2C#N)CCN1C(=O)C12CC3CC(CC(C3)C1)C2"
Response: 2.1

Prompt: Look up inhibition for this molecule: "C[C@@H]1CN(c2ccncc2)CCN1C(=O)C12CC3CC(CC(C3)C1)C2"
Response: 49.2

Prompt: Look up inhibition for this molecule: "C[C@@H]1CN(c2ccccn2)CCN1C(=O)C12CC3CC(CC(C3)C1)C2"
Response: 2.5

Prompt: Look up inhibition for this molecule: "C[C@@H]1CN(C(=O)C23CC4CC(CC(C4)C2)C3)CCN1c1ncccn1"
Response: 17

Prompt: Look up inhibition for this molecule: "C[C@@H]1CN(c2cccnc2C#N)CCN1C(=O)C12CC3CC(CC(C3)C1)C2"
Response: 2.8

Prompt: Look up inhibition for this molecule: "C[C@@H]1CN(c2ccncn2)CCN1C(=O)C12CC3CC(CC(C3)C1)C2"
Response: -1

Prompt: Look up inhibition for this molecule: "C[C@@H]1CN(C(=O)C2CCCCCCC2)CCN1c1ccccn1"
Response: 52.9

Prompt: Look up inhibition for this molecule: C[C@@H]1CN(C(=O)C2CC3CCCC(C3)C2)CCN1c1ccccn1 (some centres undefined)
Response: 12.2

Prompt: Look up inhibition for this molecule: "C[C@@H]1CN(C(=O)[C@H]2CC[C@H](C(C)(C)C)CC2)CCN1c1ccccn1"
Response: 44.1

---

Assignment: determine reported pIC50 for the given compounds.
# systemTested: Metabotropic glutamate receptor 1 (Homo sapiens)
# protocolDescription: Negative allosteric modulation of human mGluR1 expressed in HEK293A cells assessed as inhibition of glutamate-induced calcium mobilization
# Format: functional, cell-based, HEK293-A
# Sequence (Q13255 whole entry): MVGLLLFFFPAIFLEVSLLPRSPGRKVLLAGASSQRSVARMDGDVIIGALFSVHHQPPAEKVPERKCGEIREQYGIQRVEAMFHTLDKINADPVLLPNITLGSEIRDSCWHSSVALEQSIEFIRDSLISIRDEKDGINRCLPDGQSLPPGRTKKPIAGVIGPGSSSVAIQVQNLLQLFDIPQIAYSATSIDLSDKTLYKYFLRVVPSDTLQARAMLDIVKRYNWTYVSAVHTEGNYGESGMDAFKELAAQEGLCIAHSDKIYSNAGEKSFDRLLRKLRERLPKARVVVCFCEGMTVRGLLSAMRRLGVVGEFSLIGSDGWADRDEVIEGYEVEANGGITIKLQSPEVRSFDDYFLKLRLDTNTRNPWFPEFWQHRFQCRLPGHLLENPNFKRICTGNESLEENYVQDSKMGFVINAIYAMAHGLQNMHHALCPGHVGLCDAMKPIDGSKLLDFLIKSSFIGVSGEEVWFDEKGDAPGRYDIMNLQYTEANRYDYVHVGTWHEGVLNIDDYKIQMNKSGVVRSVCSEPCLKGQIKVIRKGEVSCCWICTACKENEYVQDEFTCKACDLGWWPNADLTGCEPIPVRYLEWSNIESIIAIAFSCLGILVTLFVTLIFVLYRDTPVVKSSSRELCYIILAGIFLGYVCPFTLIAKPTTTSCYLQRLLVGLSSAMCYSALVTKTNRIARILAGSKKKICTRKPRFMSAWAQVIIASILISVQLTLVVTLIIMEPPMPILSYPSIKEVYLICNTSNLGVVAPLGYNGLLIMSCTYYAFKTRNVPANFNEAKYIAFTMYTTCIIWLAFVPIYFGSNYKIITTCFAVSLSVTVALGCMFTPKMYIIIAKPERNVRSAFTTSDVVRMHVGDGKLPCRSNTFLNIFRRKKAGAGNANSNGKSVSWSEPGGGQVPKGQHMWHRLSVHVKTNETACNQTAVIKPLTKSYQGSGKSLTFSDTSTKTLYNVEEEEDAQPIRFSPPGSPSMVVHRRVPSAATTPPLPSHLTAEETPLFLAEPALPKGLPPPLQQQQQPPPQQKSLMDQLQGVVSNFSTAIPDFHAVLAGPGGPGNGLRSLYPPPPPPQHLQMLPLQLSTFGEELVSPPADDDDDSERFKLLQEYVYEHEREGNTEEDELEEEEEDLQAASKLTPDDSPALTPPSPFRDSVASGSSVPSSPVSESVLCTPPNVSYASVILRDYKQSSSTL
Please express pIC50 as -log10 of the molar concentration.

Prompt: Lab request: please report pIC50 under test system Metabotropic glutamate receptor 1 (Homo sapiens) for "C[C@@H]1CN(c2cnccc2C#N)CCN1C(=O)C12CC3CC(CC(C3)C1)C2"
Response: 5.85

Prompt: Lab request: please report pIC50 under test system Metabotropic glutamate receptor 1 (Homo sapiens) for "C[C@@H]1CN(c2ncccc2C#N)CCN1C(=O)C12CC3CC(CC(C3)C1)C2"
Response: 6.46

---

# protocolDescription: Drug level in Sprague-Dawley rat brain at 10 mg/kg, po after 30 mins
# Assay type: ADME, organism-based
# Set-up: dose 10 mg/kg, route oral
# experimentalSetup: read-out: Drug uptake
testReadout: concentration at 0.5 h (ng/mL)
Give just the number in ng/mL; leave the unit off.

Prompt: Look up concentration at 0.5 h for this compound: "C[C@@H]1CN(c2cccnc2C#N)CCN1C(=O)C12CC3CC(CC(C3)C1)C2"
Response: 727

---

# systemTested: Metabotropic glutamate receptor 1 (Homo sapiens, UniProt Q13255)
# protocolDescription: Negative allosteric modulation of human mGluR1 expressed in HEK293A cells assessed as inhibition of glutamate-induced calcium mobilization
Assignment: determine reported IC50 for the given molecules.
Give just the number in nM; leave the unit off.

Prompt: Look up IC50 for this molecule: "C[C@@H]1CN(c2ccncn2)CCN1C(=O)C12CC3CC(CC(C3)C1)C2"
Response: 1330

Prompt: Look up IC50 for this molecule: "C[C@@H]1CN(c2ccccn2)CCN1C(=O)[C@H]1CC[C@H](C(C)(C)C)CC1"
Response: 3610

Prompt: Look up IC50 for this molecule: "C[C@@H]1CN(c2cnccn2)CCN1C(=O)C12CC3CC(CC(C3)C1)C2"
Response: 1190

Prompt: Look up IC50 for this molecule: "C[C@@H]1CN(c2ccccc2C#N)CCN1C(=O)C12CC3CC(CC(C3)C1)C2"
Response: 264

Prompt: Look up IC50 for this molecule: "C[C@@H]1CN(C(=O)C23CC4CC(CC(C4)C2)C3)CCN1c1ccccn1"
Response: 166

Prompt: Look up IC50 for this molecule: "O=C(N1CCN(c2nccs2)CC1)C12CC3CC(CC(C3)C1)C2"
Response: 630

Prompt: Look up IC50 for this molecule: "C[C@@H]1CN(c2ccccn2)CCN1C(=O)C12CC3CC(CC(C3)C1)C2"
Response: 161

Prompt: Look up IC50 for this molecule: "C[C@@H]1CN(C(=O)C23CC4CC(CC(C4)C2)C3)CCN1c1ccccc1C#N"
Response: 2460

Prompt: Look up IC50 for this molecule: "C[C@H]1CN(c2ccccn2)CCN1C(=O)C12CC3CC(CC(C3)C1)C2"
Response: 2420

Prompt: Look up IC50 for this molecule: C[C@@H]1CN(c2ccccn2)CCN1C(=O)C1CC2CCCC(C2)C1 (some centres not stated)
Response: 167

Prompt: Look up IC50 for this molecule: "C[C@@H]1CN(c2ccccn2)CCN1C(=O)C1CCCCCCC1"
Response: 6630

Prompt: Look up IC50 for this molecule: "C[C@@H]1CN(c2cccnc2C#N)CCN1C(=O)C12CC3CC(CC(C3)C1)C2"
Response: 99

Prompt: Look up IC50 for this molecule: "C[C@@H]1CN(c2ncccn2)CCN1C(=O)C12CC3CC(CC(C3)C1)C2"
Response: 714

---

# systemTested: Metabotropic glutamate receptor 1 (Homo sapiens, UniProt Q13255)
# protocolDescription: Negative allosteric modulation of human mGluR1 expressed in HEK293A cells assessed as inhibition of glutamate-induced calcium mobilization at 30 uM relative to glutamate
# Assay type: functional, cell-based
# experimentalSetup: HEK293-A
testReadout: inhibition (%)
Give just the number in %; leave the unit off.

Prompt: Look up inhibition for this molecule: "C[C@@H]1CN(c2ccncc2C#N)CCN1C(=O)C12CC3CC(CC(C3)C1)C2"
Response: 0.3

Prompt: Look up inhibition for this molecule: "C[C@@H]1CN(c2cnccc2C#N)CCN1C(=O)C12CC3CC(CC(C3)C1)C2"
Response: -0.8

Prompt: Look up inhibition for this molecule: "C[C@@H]1CN(C(=O)C2CCCCCC2)CCN1c1ccccn1"
Response: 62.6

Prompt: Look up inhibition for this molecule: "C[C@@H]1CN(c2ccc(F)cn2)CCN1C(=O)C12CC3CC(CC(C3)C1)C2"
Response: 1.3

---

Assignment: determine reported IC50 for the given compounds.
# systemTested: UniProt Q13255
# protocolDescription: Negative allosteric modulation of human mGluR1 expressed in HEK293A cells assessed as inhibition of glutamate-induced calcium mobilization

Prompt: Look up IC50 for this compound: "C[C@@H]1CN(c2ccncc2)CCN1C(=O)C12CC3CC(CC(C3)C1)C2"
Response: > 10 µM

Prompt: Look up IC50 for this compound: "C[C@@H]1CN(C(=O)C2CC2)CCN1c1ccccn1"
Response: > 30 µM

Prompt: Look up IC50 for this compound: "C[C@@H]1CN(C(=O)C23CC4CC(CC(C4)C2)C3)CCN1c1ccncc1"
Response: > 30 µM
